- target-desc: pooled human IgG (human IgG1,2,3 and 4)
measure-name: Enzyme Activity Endpoint Assay (purified): Fab'2

- protein: "PRT-325 (protein) MTITSVWTKGVTPPTPEDFRENNEDVLHAPYVANQGWYDITKTFDGKDNLLCGAATAGNMLHWWFDQNKEEIERYLKKHPEKQKIIFGNQELFDVKAAIDTKDSQTNSKLFDYFRDKAFPNLSARQLGVMPDLVLDMFINGYYLNLGKTQSTDVNRPYQDKDKRGGIFDAVFTRGDQTTLLTARHDLKNKGLNEISDLIKQELTEGKALALSHTYANVRINHVINLWGADFDAEGELIAIYVTDSDANPSIGMKKYFVGRNANGKVAISAKKIEGDNIGAQVLGLFTLSTGQDIWQKLS"
  result: "930 ng/µL"
- protein: "PRT-342 (protein) MTITSVWTKGVTPPTPEDFRENNEDVLHAPYLANQGWYDITKAFDGKDNLLCGAATAGNMLHWWFDQNKEEIERYLKKHPEKQKIIFGNQELFDVKAAIDTKDSQTNSKLFNYFRDKAFPNLSARQLGVMPDLVLDMFINGYYLNLGKTQSTDVNRPYQDKDKRGGIFDAVFTRGDQTTLLTARHDLKNKGLNEISDLIKQELTEGKALALSHTYANVSINHVINLWGADFDAEGNLEAIYVTDSDANPSIGMKKYFVGRNAHGKVAISAKKIEGDNIGAQVLGLFTLSTGQDIWQKLS"
  result: "15 ng/µL"
